Biological target: T1, human APRIL protein (human, UniProt O75888 105-250, limits assumed)
T1 construct: Bought protein; also called recombinant APRIL protein
T1 sequence (looked up): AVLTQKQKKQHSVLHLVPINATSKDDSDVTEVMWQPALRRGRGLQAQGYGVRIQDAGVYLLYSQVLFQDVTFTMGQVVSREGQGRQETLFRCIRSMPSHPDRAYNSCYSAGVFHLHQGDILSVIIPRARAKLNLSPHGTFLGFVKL
Assay: ELISA, coated APRIL; antibody 2.67 nM
measured.endpoint: OD450 nm

Return reported OD450 nm; argument: 97A3C2H4 (antibody, V domains shown, Mouse hybridoma antibody purified on Protein G) VH: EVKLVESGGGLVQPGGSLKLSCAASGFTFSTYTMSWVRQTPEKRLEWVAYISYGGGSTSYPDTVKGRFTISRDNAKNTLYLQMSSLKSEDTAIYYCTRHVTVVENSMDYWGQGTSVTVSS VL: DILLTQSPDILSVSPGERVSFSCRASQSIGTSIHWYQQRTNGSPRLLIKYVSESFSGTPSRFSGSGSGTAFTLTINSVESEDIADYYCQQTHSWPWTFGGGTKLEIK 0.0617

Return reported OD450 nm; argument: L1D12 (antibody, human IgG1, V domains shown, also called LID12) VH: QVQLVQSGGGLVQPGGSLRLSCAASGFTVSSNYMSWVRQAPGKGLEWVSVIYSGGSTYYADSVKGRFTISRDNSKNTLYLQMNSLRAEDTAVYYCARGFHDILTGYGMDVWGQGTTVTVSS VL: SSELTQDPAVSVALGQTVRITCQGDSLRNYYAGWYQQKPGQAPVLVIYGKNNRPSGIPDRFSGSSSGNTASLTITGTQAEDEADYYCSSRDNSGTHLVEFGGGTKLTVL 0.102

Return reported OD450 nm; argument: L9G7 (antibody, human IgG1, V domains shown) VH: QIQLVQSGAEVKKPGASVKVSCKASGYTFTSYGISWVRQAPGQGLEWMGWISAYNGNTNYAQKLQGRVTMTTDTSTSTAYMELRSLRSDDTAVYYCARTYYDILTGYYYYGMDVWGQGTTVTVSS VL: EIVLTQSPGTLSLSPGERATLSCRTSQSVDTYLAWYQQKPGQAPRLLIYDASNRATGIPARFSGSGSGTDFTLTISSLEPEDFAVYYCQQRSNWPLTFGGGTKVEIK 0.0751

Return reported OD450 nm; argument: 35E6F7C3 (antibody, V domains shown, Mouse hybridoma antibody purified on Protein G) VH: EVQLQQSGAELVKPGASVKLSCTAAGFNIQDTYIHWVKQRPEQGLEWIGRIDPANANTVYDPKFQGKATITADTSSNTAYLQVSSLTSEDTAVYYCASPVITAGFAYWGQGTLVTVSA VL: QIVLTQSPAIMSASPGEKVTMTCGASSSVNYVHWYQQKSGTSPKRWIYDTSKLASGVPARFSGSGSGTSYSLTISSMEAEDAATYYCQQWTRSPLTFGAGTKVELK 0.0561

Return reported OD450 nm; argument: 8E7D9C7F5 (antibody, V domains shown) VH: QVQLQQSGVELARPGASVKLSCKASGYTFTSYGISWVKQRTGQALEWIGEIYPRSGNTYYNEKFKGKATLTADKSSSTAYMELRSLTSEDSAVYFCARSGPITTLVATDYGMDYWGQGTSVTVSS VL: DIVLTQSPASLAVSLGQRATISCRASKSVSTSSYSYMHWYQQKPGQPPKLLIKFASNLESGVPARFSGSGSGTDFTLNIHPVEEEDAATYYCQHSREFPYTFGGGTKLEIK 0.0703
